Value Kind: IC50
Reply with the number, then its unit.

Enter reported IC50 observed with Trypanothione reductase (Trypanosoma cruzi, UniProt P28593) for COc1ccc2nc3cc(Cl)ccc3c(NCCNS(=O)(=O)c3ccc4ccccc4c3)c2c1
Sequence (P28593 whole entry): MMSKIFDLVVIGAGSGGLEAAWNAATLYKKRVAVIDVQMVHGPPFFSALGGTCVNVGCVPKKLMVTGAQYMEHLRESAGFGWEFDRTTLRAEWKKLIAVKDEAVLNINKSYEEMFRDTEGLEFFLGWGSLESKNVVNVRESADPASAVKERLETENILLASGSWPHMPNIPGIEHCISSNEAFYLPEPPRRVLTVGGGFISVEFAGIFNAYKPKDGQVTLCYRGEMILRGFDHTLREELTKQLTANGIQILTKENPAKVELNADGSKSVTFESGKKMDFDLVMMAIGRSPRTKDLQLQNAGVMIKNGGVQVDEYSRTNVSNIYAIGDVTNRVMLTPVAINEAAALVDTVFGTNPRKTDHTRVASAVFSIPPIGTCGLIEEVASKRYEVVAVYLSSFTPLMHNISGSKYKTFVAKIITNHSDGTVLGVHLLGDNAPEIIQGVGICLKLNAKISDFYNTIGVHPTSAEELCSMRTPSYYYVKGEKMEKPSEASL
5.9 µM

Enter reported IC50 observed with Trypanothione reductase (Trypanosoma cruzi, UniProt P28593) for COc1ccc2nc3cc(Cl)ccc3c(NCCCCCCNC(=O)NCc3ccccc3)c2c1
11.4 µM

Enter reported IC50 observed with Trypanothione reductase (Trypanosoma cruzi, UniProt P28593) for COc1ccc2nc3cc(Cl)ccc3c(NCCCNC(=O)NCc3ccccc3)c2c1
13.1 µM

Enter reported IC50 observed with Trypanothione reductase (Trypanosoma cruzi, UniProt P28593) for COc1ccc2nc3cc(Cl)ccc3c(NCCCNS(=O)(=O)c3ccc4ccccc4c3)c2c1
3.3 µM

Enter reported IC50 observed with Trypanothione reductase (Trypanosoma cruzi, UniProt P28593) for COc1ccc2nc3cc(Cl)ccc3c(NCCCCNC(=O)NCc3ccccc3)c2c1
15.5 µM

Enter reported IC50 observed with Trypanothione reductase (Trypanosoma cruzi, UniProt P28593) for COc1ccc2nc3cc(Cl)ccc3c(NCCCCNS(=O)(=O)c3ccc4ccccc4c3)c2c1
5 µM

Enter reported IC50 observed with Trypanothione reductase (Trypanosoma cruzi, UniProt P28593) for COc1ccc2nc3cc(Cl)ccc3c(NCCNC(=O)NCc3ccccc3)c2c1
19.3 µM
